Recorded values, source patent US20250340591A1.

# target: GPR39 (Homo sapiens, UniProt O43194)
# Sequence (O43194 whole entry): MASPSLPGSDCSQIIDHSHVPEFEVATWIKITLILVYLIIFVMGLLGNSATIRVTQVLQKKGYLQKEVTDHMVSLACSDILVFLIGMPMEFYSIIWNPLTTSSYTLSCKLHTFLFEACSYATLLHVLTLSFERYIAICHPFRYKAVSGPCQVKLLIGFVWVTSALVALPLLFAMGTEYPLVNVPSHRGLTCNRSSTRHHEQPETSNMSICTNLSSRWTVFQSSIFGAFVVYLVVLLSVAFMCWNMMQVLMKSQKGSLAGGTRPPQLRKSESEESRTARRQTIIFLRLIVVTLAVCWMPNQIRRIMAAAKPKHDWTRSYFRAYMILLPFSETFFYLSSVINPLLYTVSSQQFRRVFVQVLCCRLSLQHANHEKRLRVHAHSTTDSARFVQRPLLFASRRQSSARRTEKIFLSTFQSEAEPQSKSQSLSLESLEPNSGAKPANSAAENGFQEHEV
# test-details: luciferase assay system (SRE luciferase reporter gene, CV-1 cells expressing GPR39)
# Type: cell-based
# Set-up: expressed in transfected cells; host or cells: CV-1 fibroblast cell line (Korea Cell Line Bank), adenoviral transduction at 50 MOI
Square brackets hold non-standard residues; d marks the D form. Peptide text beside a SMILES is read from it. * marks the point of attachment. His(Trt) = N[C@@H](Cc1cn(C(c2ccccc2)(c2ccccc2)c2ccccc2)cn1)C(=O)O; Lauroyl = CCCCCCCCCCCC(=O)*
measured-property: ECmax (−fold induction over basal)
The reply should be a number in fold induction over basal, with the unit left off.

Per the records, this compound ( CCCCCCCC(=O)NCCCC[C@H](NC(=O)[C@@H](N)Cc1cn(-c2ccccc2)cn1)C(=O)N[C@H](Cc1ccc(C)cc1)C(=O)N[C@@H](Cc1ccc(O)cc1)C(=O)O [HKFY-58] ) has ECmax (−fold induction over basal) equal to 9.12

Looking up CCCCCCCC(=O)NCCCC[C@H](NC(=O)[C@@H](N)Cc1cn(C(c2ccccc2)(c2ccccc2)c2ccc(C)cc2)cn1)C(=O)N[C@@H](Cc1ccccc1)C(=O)N[C@@H](Cc1ccc(O)cc1)C(=O)O [HKFY-5] , I found its ECmax (−fold induction over basal) recorded as 16

Kindly review the next compound as well.
According to the records, this compound CCCCCCCCCCCC(=O)NCCCC[C@H](NC(=O)[C@@H](N)Cc1cn(C(c2ccccc2)(c2ccccc2)c2ccccc2)cn1)C(=O)N[C@@H](Cc1ccccc1)C(=O)N[C@@H](Cc1ccc(O)cc1)C(=O)O [HKFY-25] (H-[His(Trt)]K(Lauroyl)FY-OH) displays ECmax (−fold induction over basal) of 7.72
